// data source = ChEMBL document CHEMBL3526121

Attribute: half-life
Test: Half life in Wistar rat at 250 mg/kg, po by HPLC analysis
Type: ADME, organism-based
Set-up: dose 250 mg/kg, route oral
Conditions: in vivo
Give the quantity in h, number only.

COc1cc(OC)c2c(=O)cc(-c3ccccc3)oc2c1 [CHRYSIN DIMETHYL ETHER] ... 5.85
COc1cc(OC)c2c(=O)c(OC)c(-c3ccc(OC)c(OC)c3)oc2c1 ... 3.12

# evaluate next
Ask | Output half-life of COc1ccc(-c2cc(=O)c3c(OC)cc(OC)cc3o2)cc1 [TRIMETHYLAPIGENIN]
Reply | 5.04

---

Test: AUC in Wistar rat at 250 mg/kg, po by HPLC analysis
Type: ADME, organism-based
Parameters: dose 250 mg/kg, route oral
Conditions: plasma
Endpoint label: AUC (ng·h/mL)
Give the quantity in ng·h/mL, number only.

The following compounds have reported results that may help.
COc1ccc(-c2cc(=O)c3c(OC)cc(OC)cc3o2)cc1 ... 6960
COc1cc(OC)c2c(=O)cc(-c3ccccc3)oc2c1 ... 7010

# evaluate next
Ask | Output AUC of "COc1cc(OC)c2c(=O)c(OC)c(-c3ccc(OC)c(OC)c3)oc2c1"
Reply | 3650

---

Experiment: Cmax in Wistar rat kidney at 750 mg/kg, po by LC-MS/MS analysis
Assay type: ADME, organism-based
Parameters: dose 750 mg/kg, route oral
Endpoint label: Cmax (ng/g)
Give the quantity in ng/g, number only.

COc1cc(OC)c2c(=O)c(OC)c(-c3ccc(OC)c(OC)c3)oc2c1 ... 1000
COc1ccc(-c2cc(=O)c3c(OC)cc(OC)cc3o2)cc1 ... 1640

Ask | Output Cmax of "COc1cc(OC)c2c(=O)cc(-c3ccccc3)oc2c1"
Reply | 1330

---

Attribute: Tmax
Test: Tmax in Wistar rat brain at 750 mg/kg, po by LC-MS/MS analysis
Type: ADME, organism-based
Set-up: dose 750 mg/kg, route oral
Give the quantity in h, number only.

COc1cc(OC)c2c(=O)c(OC)c(-c3ccc(OC)c(OC)c3)oc2c1 ... 3.14
COc1ccc(-c2cc(=O)c3c(OC)cc(OC)cc3o2)cc1 ... 3.43

# evaluate next
Ask | Output Tmax of "COc1cc(OC)c2c(=O)cc(-c3ccccc3)oc2c1"
Reply | 3.14

---

Test: Cmax in Wistar rat liver at 750 mg/kg, po by LC-MS/MS analysis
Format: ADME, organism-based
Design: dose 750 mg/kg, route oral
Attribute: Cmax
Give the quantity in ng/g, number only.

The following molecules have reported results that may help.
COc1cc(OC)c2c(=O)c(OC)c(-c3ccc(OC)c(OC)c3)oc2c1 ... 3100
COc1cc(OC)c2c(=O)cc(-c3ccccc3)oc2c1 ... 3850

# evaluate next
Ask | Output Cmax of "COc1ccc(-c2cc(=O)c3c(OC)cc(OC)cc3o2)cc1"
Reply | 3010

---

Test: Half life in Wistar rat at 250 mg/kg, iv by HPLC analysis
Assay type: ADME, organism-based
Set-up: dose 250 mg/kg, route intravenous
Conditions: Wistar, in vivo
Endpoint label: half-life (h)
Give the quantity in h, number only.

COc1cc(OC)c2c(=O)cc(-c3ccccc3)oc2c1 ... 3.75

# evaluate next
Ask | Output half-life of "COc1ccc(-c2cc(=O)c3c(OC)cc(OC)cc3o2)cc1"
Reply | 4.19
